Molecular target: IDO1 (Homo sapiens, UniProt P14902)
Construct: HeLa cells were treated with a test compound in the presence of IFNγ, which induces IDO1 expression; endogenous in cells
Sequence (P14902 whole entry): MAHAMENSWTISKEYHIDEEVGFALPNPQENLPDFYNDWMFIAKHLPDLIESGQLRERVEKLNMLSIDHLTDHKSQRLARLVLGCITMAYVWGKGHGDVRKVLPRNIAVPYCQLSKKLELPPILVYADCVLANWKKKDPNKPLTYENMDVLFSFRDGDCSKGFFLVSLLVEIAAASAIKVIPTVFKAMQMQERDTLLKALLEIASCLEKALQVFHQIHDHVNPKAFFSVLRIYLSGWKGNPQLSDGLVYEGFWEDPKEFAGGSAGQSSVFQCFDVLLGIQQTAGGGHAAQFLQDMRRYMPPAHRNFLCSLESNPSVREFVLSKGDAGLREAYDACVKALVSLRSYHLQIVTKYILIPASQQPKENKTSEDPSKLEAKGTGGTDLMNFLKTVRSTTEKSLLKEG
Assay: Cell-based (HeLa) assay for measurement of IDO1 inhibition (kynurenine levels in supernatant after IFNγ induction)
Settings: H1-HeLa cells, IFNγ-induced IDO1, 48 hour incubation, kynurenine absorbance at 480 nm; geometric mean of a minimum of four determinations
Exercise: for every item that follows, state its recorded EC50.
Enter the number, and then the unit.

Record excerpt, results attached:
[
  {
    "compound_string": "Cc1cc(NC(=O)c2cc(-c3cccn4c(-c5cccc(F)c5F)ncc34)cnc2C)ccn1",
    "EC50": "0.656 µM"
  },
  {
    "compound_string": "Cc1ncc(-c2cccn3c(-c4cccc(F)c4C(F)(F)F)ncc23)cc1C(=O)Nc1ccc(F)cc1",
    "EC50": "0.211 µM"
  },
  {
    "compound_string": "Cc1ncc(-c2cccn3c(C4CCOCC4)ncc23)cc1C(=O)Nc1ccc(F)cc1",
    "EC50": "0.591 µM"
  }
]

We next turn to a different molecule, shown below.
Determine its reported EC50: Cc1cccc(-c2ncc3c(-c4cnc(C)c(C(=O)Nc5ccc(F)cc5)c4)cccn23)c1 0.135 µM

----------
Target: IDO1 (Homo sapiens, UniProt P14902)
Construct: HeLa cells were treated with a test compound in the presence of IFNγ, which induces IDO1 expression; endogenous in cells
Test: Cell-based (HeLa) assay for measurement of IDO1 inhibition (kynurenine levels in supernatant after IFNγ induction)
Conditions: H1-HeLa cells, IFNγ-induced IDO1, 48 hour incubation, kynurenine absorbance at 480 nm; geometric mean of a minimum of four determinations
pEC50: −log10 of the molar value.
Please mark label 1 if the recorded pEC50 is equal to or greater than 7, and label 0 if it falls below.

[
  {
    "compound_string": "Cc1ncc(-c2cccn3c(-c4cccc(F)c4)ncc23)cc1C(=O)Nc1ccc(F)cc1",
    "classification": "label 1"
  },
  {
    "compound_string": "Cc1ncc(-c2cccn3c(-c4cccc(F)c4F)ncc23)cc1-c1nc2ccccc2[nH]1",
    "classification": "label 1"
  },
  {
    "compound_string": "O=C(Nc1ccc(F)cc1)c1cc(-c2cccn3c(-c4cccc(F)c4F)ncc23)ccc1C(F)(F)F",
    "classification": "label 1"
  },
  {
    "compound_string": "Cc1ncc(-c2cccn3c(-c4ccccc4Cl)ncc23)cc1C(=O)Nc1ccc(F)cc1",
    "classification": "label 1"
  }
]

Does the compound Cc1ccc(-c2nccn3c(-c4ccccn4)ncc23)cc1C(=O)Nc1ccc(F)cc1 have recorded pEC50 that is 7 or more? label 0

Does the compound Cc1ccc(-c2cccn3c(-c4cccnc4)nnc23)cc1C(=O)Nc1ccc(F)cc1 have recorded pEC50 that is 7 or more? label 0

Does the compound O=C(Nc1ccc(F)cc1)c1cc(-c2cccn3c(-c4cccc(F)c4F)ncc23)ncc1C(F)(F)F have recorded pEC50 that is 7 or more? label 1

Does the compound Cc1ncc(-c2cccn3c(-c4ncccc4F)ncc23)cc1C(=O)Nc1ccc(F)cc1 have recorded pEC50 that is 7 or more? label 0

Does the compound Cc1ncc(-c2cccn3c(-c4cccc(Cl)c4)ncc23)cc1C(=O)Nc1ccc(F)cc1 have recorded pEC50 that is 7 or more? label 0

Does the compound N#Cc1ccnc(-c2ncc3c(-c4ccc(C(F)(F)F)c(C(=O)Nc5ccc(F)cc5)c4)cccn23)c1 have recorded pEC50 that is 7 or more? label 0

Reference source for all entries: patent US11040033B2
